tested on: OVCAR-3 ovarian; experiment: NCI-60 one-dose screen, 48 h (100 = growth as untreated, 0 = no growth, -100 = all killed); conditions: 10 µM unless noted
Compounds without any hit were thinned out: in the full panel of roughly 83,000, 20% have a hit.
Measured growth of individual entries

compound | growth, %
COc1cc(/C=C2\CN(C(=O)OC(C)(C)C)C/C(=C\c3ccc(O)c(OC)c3)C2=O)ccc1O | 98.6
FC(F)(F)c1cc(-c2nnc3n2N=C(Cl)CS3)cc(C(F)(F)F)c1 | 116
O=C(/C=C/c1ccco1)c1ccccc1O | 97
O=C(Nc1cccc(Cl)c1)Nc1ccccc1Cl | 78.4
COc1ccc(C(=O)O)cc1.[Ag] | 99.7
O=c1c2cc(Cl)ccc2oc2ccc(OCCCCCN3CCCCC3)cc12 | 67.1
Clc1cccc(CNc2c3ccccc3nc3ccccc23)c1 | 57.7
C[C@@H]1CC2C3CCC4=CC(=O)C=C[C@]4(C)[C@@]3(Cl)[C@@H](O)C[C@]2(C)[C@@]1(OC(=O)c1ccco1)C(=O)CCl (stereo partly specified) | 89.3
Oc1ccc(-c2nnc3c4[nH]ccc4ncn23)cc1 | 107
CCn1c(=O)c(C(=O)NCCCO)c(O)c2ccccc21 | 155
O=C(c1ccccc1)c1cccc(C(Br)Br)c1 | 97.5
